- TARGET OF ASSAY: calpain-I (Sus scrofa)
- Construct: purchased CalBiochem
- Sequence (P35750 whole entry): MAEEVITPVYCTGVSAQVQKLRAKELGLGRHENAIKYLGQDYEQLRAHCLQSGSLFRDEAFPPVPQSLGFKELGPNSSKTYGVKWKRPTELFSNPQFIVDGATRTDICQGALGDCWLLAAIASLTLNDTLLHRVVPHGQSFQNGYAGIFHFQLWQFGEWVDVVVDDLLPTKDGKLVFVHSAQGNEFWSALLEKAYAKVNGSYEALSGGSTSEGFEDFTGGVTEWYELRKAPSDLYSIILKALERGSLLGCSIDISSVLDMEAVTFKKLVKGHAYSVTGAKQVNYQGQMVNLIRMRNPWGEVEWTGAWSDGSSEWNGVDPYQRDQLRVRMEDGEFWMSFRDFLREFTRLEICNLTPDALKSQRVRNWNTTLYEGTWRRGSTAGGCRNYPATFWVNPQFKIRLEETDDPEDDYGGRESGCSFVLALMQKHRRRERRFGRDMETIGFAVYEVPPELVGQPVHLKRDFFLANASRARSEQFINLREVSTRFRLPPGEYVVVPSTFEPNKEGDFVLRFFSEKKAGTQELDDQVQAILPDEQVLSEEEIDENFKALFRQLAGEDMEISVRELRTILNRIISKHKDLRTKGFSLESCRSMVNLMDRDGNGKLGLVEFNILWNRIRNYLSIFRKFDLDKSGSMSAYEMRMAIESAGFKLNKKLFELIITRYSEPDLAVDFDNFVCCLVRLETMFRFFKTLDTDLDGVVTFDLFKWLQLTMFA
- Sequence (P04574 whole entry, further chain): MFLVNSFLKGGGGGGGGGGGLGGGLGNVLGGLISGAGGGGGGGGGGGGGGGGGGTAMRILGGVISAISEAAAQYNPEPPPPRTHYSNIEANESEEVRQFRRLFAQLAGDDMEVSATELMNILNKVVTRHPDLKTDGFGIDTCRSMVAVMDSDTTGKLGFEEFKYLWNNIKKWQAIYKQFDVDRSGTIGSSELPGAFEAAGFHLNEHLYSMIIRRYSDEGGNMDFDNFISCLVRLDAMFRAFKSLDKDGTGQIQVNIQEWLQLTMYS
- PROTOCOL TEXT: FRET-based calpain-I inhibition assay in the presence and absence of 10 mM DTT
- Type: biochemical, porcine
- ASSAY SETUP: thioethers; DTT had no effect on the potency; read-out: IC50
PROPERTY LABEL: IC50 (nM)
State the answer as a number, implicitly in nM.

The measured IC50 associated with "O=C(O)/C(=C/c1cccc(Cl)c1)CS/C(=C\c1c[nH]c2ccc(Br)cc12)C(=O)O" reads 1800
